EXPERIMENTAL TARGET: Kras and SOS1 (biotin-tagged human Kras loaded with GDP, His-tagged human SOS1) (Homo sapiens, UniProt P01116, G12D)
Construct: made in house; host or cells: E. coli (stated for Kras only)
Sequence (P01116 1-188 isoform P01116-2 G12D): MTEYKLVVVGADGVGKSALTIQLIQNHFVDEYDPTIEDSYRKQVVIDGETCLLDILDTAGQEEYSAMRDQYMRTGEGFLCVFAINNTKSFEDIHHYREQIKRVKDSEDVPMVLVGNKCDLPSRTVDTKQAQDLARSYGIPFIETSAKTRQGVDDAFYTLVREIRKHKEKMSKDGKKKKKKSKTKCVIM
METHOD: Protein-protein interaction inhibition between Kras and SOS1 (KrasGl2D-SOS PPI) using AlphaScreen
Format: binding
CONDITION SUMMARY: AlphaScreen; biotin-tagged human Kras loaded with GDP, His-tagged human SOS1; read-out: KRAS G12D-SOS PPI IC50
Non-standard residues stand in square brackets, D forms with d. Residues, ends and D or L forms follow the SMILES beside them. hPhe(3-Cl-4-CF3) = N[C@@H](CCc1ccc(C(F)(F)F)c(Cl)c1)C(=O)O; NMePhe(4-Me) = CN[C@@H](Cc1ccc(C)cc1)C(=O)O; NMeGly(cPent) = CN[C@H](C(=O)O)C1CCCC1; d(β3hA) = C[C@@H](N)CC(=O)O; NMeA = CN[C@@H](C)C(=O)O; dNMeA = CN[C@H](C)C(=O)O; Ac5c = NC1(C(=O)O)CCCC1; Sar = CNCC(=O)O
ASSAY ENDPOINT: IC50 (nM)
The reply should be a number in nM, with the unit left off.

Challenge: Return value of IC50 for input CC[C@H](C)[C@@H]1NC(=O)[C@H](C)N(C)C(=O)C[C@@H](C)NC(=O)[C@H](C2CCCC2)N(C)C(=O)C2(CCCC2)NC(=O)[C@@H]2CCCN2C(=O)[C@H](CCc2ccc(C(F)(F)F)c(Cl)c2)NC(=O)[C@@H](C)N(C)C(=O)[C@H](Cc2ccc(C)cc2)N(C)C(=O)CN(C)C(=O)CN(C)C1=O [Compound 1465] (cyclo([Ac5c][NMeGly(cPent)][d(β3hA)][NMeA]I[Sar][Sar][NMePhe(4-Me)][dNMeA][hPhe(3-Cl-4-CF3)]P)) , no commentary.
Response given: 51
